- Test system: S180 tumor
- EXPERIMENT: Biodistribution in tumor-bearing mice
- Assay type: in vivo
- CONDITION_DESCRIPTION: 30 min, i.v., mice bearing S180 tumor, n=5, mean ± SD
- Experimental: The mice bearing S180 tumors were injected intravenously via the tail vein respectively with the solutions (0.1 mL, 370 kBq) containing the radioactive drugs of Examples 1-4. […] After dissection, the heart, liver, lung, kidney, spleen, bone, muscle, small intestine, blood and tumors were harvested, and measured for radioactivity with the γ-counter. The biodistribution individual organs or tissues was expressed as the percentage of the injected dose per gram of organ or tissue (% ID/g).
MEASUREMENT_NAME: Lung (% ID/g)
Value expressed in % ID/g; do not type the unit.

Examples with their reported Lung follow.
COMPOUND	MEASUREMENT_NAME	QUANTITATIVE_READOUT
O=C(NC1C(O)OC(CO)C(O)C1O)c1ccc(CC[N+]#[C][99Tc+]([C]#[N+]CCc2ccc(C(=O)NC3C(O)OC(CO)C(O)C3O)cc2)([C]#[N+]CCc2ccc(C(=O)NC3C(O)OC(CO)C(O)C3O)cc2)([C]#[N+]CCc2ccc(C(=O)NC3C(O)OC(CO)C(O)C3O)cc2)([C]#[N+]CCc2ccc(C(=O)NC3C(O)OC(CO)C(O)C3O)cc2)[C]#[N+]CCc2ccc(C(=O)NC3C(O)OC(CO)C(O)C3O)cc2)cc1 (stereo not shown) [^99mTc-4-CNPeDG]	Lung	2.80
O=C(NC1C(O)OC(CO)C(O)C1O)c1cccc(C[N+]#[C][99Tc+]([C]#[N+]Cc2cccc(C(=O)NC3C(O)OC(CO)C(O)C3O)c2)([C]#[N+]Cc2cccc(C(=O)NC3C(O)OC(CO)C(O)C3O)c2)([C]#[N+]Cc2cccc(C(=O)NC3C(O)OC(CO)C(O)C3O)c2)([C]#[N+]Cc2cccc(C(=O)NC3C(O)OC(CO)C(O)C3O)c2)[C]#[N+]Cc2cccc(C(=O)NC3C(O)OC(CO)C(O)C3O)c2)c1 (stereo not shown) [^99mTc-3-CNPEDG]	Lung	3.10
O=C(Cc1ccc(C[N+]#[C][99Tc+]([C]#[N+]Cc2ccc(CC(=O)NC3C(O)OC(CO)C(O)C3O)cc2)([C]#[N+]Cc2ccc(CC(=O)NC3C(O)OC(CO)C(O)C3O)cc2)([C]#[N+]Cc2ccc(CC(=O)NC3C(O)OC(CO)C(O)C3O)cc2)([C]#[N+]Cc2ccc(CC(=O)NC3C(O)OC(CO)C(O)C3O)cc2)[C]#[N+]Cc2ccc(CC(=O)NC3C(O)OC(CO)C(O)C3O)cc2)cc1)NC1C(O)OC(CO)C(O)C1O (stereo not shown) [^99mTc-4-CNMBDG]	Lung	5.89

Need Lung of O=C(NC1C(O)OC(CO)C(O)C1O)c1cccc([N+]#[C][99Tc+]([C]#[N+]c2cccc(C(=O)NC3C(O)OC(CO)C(O)C3O)c2)([C]#[N+]c2cccc(C(=O)NC3C(O)OC(CO)C(O)C3O)c2)([C]#[N+]c2cccc(C(=O)NC3C(O)OC(CO)C(O)C3O)c2)([C]#[N+]c2cccc(C(=O)NC3C(O)OC(CO)C(O)C3O)c2)[C]#[N+]c2cccc(C(=O)NC3C(O)OC(CO)C(O)C3O)c2)c1 (stereo not shown) [^99mTc-3-CNBzDG] , thanks.
4.00

---

Form field: Blood (one value per entry).
- Test system: S180 tumor
- EXPERIMENT: Biodistribution in tumor-bearing mice
- Format: in vivo
- CONDITION_DESCRIPTION: 30 min, i.v., mice bearing S180 tumor, n=5, mean ± SD
Value expressed in % ID/g; do not type the unit.

COMPOUND	MEASUREMENT_NAME	RESULT_UNIT	QUANTITATIVE_READOUT
O=C(NC1C(O)OC(CO)C(O)C1O)c1cccc([N+]#[C][99Tc+]([C]#[N+]c2cccc(C(=O)NC3C(O)OC(CO)C(O)C3O)c2)([C]#[N+]c2cccc(C(=O)NC3C(O)OC(CO)C(O)C3O)c2)([C]#[N+]c2cccc(C(=O)NC3C(O)OC(CO)C(O)C3O)c2)([C]#[N+]c2cccc(C(=O)NC3C(O)OC(CO)C(O)C3O)c2)[C]#[N+]c2cccc(C(=O)NC3C(O)OC(CO)C(O)C3O)c2)c1 (stereo not shown) [^99mTc-3-CNBzDG]	Blood	% ID/g	2.53

Need Blood of O=C(Cc1ccc(C[N+]#[C][99Tc+]([C]#[N+]Cc2ccc(CC(=O)NC3C(O)OC(CO)C(O)C3O)cc2)([C]#[N+]Cc2ccc(CC(=O)NC3C(O)OC(CO)C(O)C3O)cc2)([C]#[N+]Cc2ccc(CC(=O)NC3C(O)OC(CO)C(O)C3O)cc2)([C]#[N+]Cc2ccc(CC(=O)NC3C(O)OC(CO)C(O)C3O)cc2)[C]#[N+]Cc2ccc(CC(=O)NC3C(O)OC(CO)C(O)C3O)cc2)cc1)NC1C(O)OC(CO)C(O)C1O (stereo not shown) [^99mTc-4-CNMBDG] , thanks.
4.08

Continue with O=C(NC1C(O)OC(CO)C(O)C1O)c1cccc(C[N+]#[C][99Tc+]([C]#[N+]Cc2cccc(C(=O)NC3C(O)OC(CO)C(O)C3O)c2)([C]#[N+]Cc2cccc(C(=O)NC3C(O)OC(CO)C(O)C3O)c2)([C]#[N+]Cc2cccc(C(=O)NC3C(O)OC(CO)C(O)C3O)c2)([C]#[N+]Cc2cccc(C(=O)NC3C(O)OC(CO)C(O)C3O)c2)[C]#[N+]Cc2cccc(C(=O)NC3C(O)OC(CO)C(O)C3O)c2)c1 (stereo not shown) [^99mTc-3-CNPEDG]
2.82

Continue with O=C(NC1C(O)OC(CO)C(O)C1O)c1ccc(CC[N+]#[C][99Tc+]([C]#[N+]CCc2ccc(C(=O)NC3C(O)OC(CO)C(O)C3O)cc2)([C]#[N+]CCc2ccc(C(=O)NC3C(O)OC(CO)C(O)C3O)cc2)([C]#[N+]CCc2ccc(C(=O)NC3C(O)OC(CO)C(O)C3O)cc2)([C]#[N+]CCc2ccc(C(=O)NC3C(O)OC(CO)C(O)C3O)cc2)[C]#[N+]CCc2ccc(C(=O)NC3C(O)OC(CO)C(O)C3O)cc2)cc1 (stereo not shown) [^99mTc-4-CNPeDG]
2.42
